Experiment: STM_H9_OrnCyssISnorm_ratio: Stemina devTOX quickPredict H9 human embryonic stem cell (hESC)-based Assay for Ornithine (ORN):Cystine (CYSS) Ratio (AID 2283714)
Records with an inconclusive call do not appear. The source made the active and inactive calls. Rule for the calls: active = hit-call score of the fitted dose curve at least 0.9, where 1 is the maximum; inconclusive = response in the unintended direction; inactive = score below 0.9.
Entry note: the call must match one of true = active, false = inactive

Exam item: Hello, I am checking results. What call was entered for `O=C(OCCOCCOC(=O)c1ccccc1)c1ccccc1` ?
Marked response: false

Exam item: Assay outcome for `COc1ccc([N+](=O)[O-])cc1N` : what was it?
Marked response: false

Exam item: Please share the test call associated with `O=C(O)Cc1cc(I)c(Oc2cc(I)c(O)c(I)c2)c(I)c1` .
Marked response: false

Exam item: Called result for `CCN(CC)CCNc1ccc(CNC=O)c2sc3ccc(OC)cc3c(=O)c12`
Marked response: true

Exam item: Status in this test for CCc1ccc(CCOc2ccc(CC3SC(=O)NC3=O)cc2)nc1 (centres undefined) ?
Marked response: true

Exam item: Per the records of this test, what outcome belongs to `c1ccc2c(c1)ccc1ccccc12` ?
Marked response: true

Exam item: Dear all, I need the recorded test outcome for `C[C@@H]1C[C@H]2[C@@H]3CCC4=CC(=O)C=C[C@]4(C)[C@@]3(F)[C@@H](O)C[C@]2(C)[C@@]1(O)C(=O)COP(=O)(O)O` , thank you.
Marked response: false

Exam item: Please state the recorded outcome for this molecule: `CC1=C(/C=C/C(C)=C/C=C/C(C)=C/C(=O)O)C(C)(C)CCC1`
Marked response: true

Exam item: Please share the test call associated with `CN1CCN(c2ccccc2/C=C2\SCCN(c3ccc(Cl)c(Cl)c3)C2=O)CC1` .
Marked response: true

###

Assay: ATG_CRE_CIS: Attagene CIS-FACTORIAL HepG2 Assay for human cAMP Responsive Element (CRE) binding protein 3 (AID 2282926)
Conditions: HepG2 CRE cis-reporter, Attagene multiplexed mRNA; actives raise or lower the signal
Active and inactive are the calls of the source. Rule for the calls: active = hit-call score of the fitted dose curve at least 0.9, where 1 is the maximum; inactive = score below 0.9.
I would appreciate it if you answered using one of these outcomes: Yes = active, No = inactive

Exam item: Hi, sorry to bother you, what did the test record for `CN1CCN(c2ccccc2/C=C2\SCCN(c3ccc(Cl)c(Cl)c3)C2=O)CC1` ?
Marked response: No

Exam item: Returns: the outcome recorded for `CC(C)(C)c1cccc(C(C)(C)C)c1O` in this assay.
Marked response: Yes

Exam item: Which outcome was assigned to CCCCC(CC)COC(=O)CCCCC(=O)OCc1ccccc1 (centres undefined) in this test?
Marked response: No

Exam item: Which outcome did this test record for the compound CCC(C)(C)C1CCC(O)CC1 (centres undefined) ?
Marked response: No

Exam item: Status in this test for `COc1cc(CCC(=O)CC(=O)CCc2ccc(O)c(OC)c2)ccc1O` ?
Marked response: No

Exam item: For `c1ccc2cc3c(ccc4ccccc43)cc2c1` , which call appears in the assay record?
Marked response: No

Exam item: In this assay, the call recorded for `Cc1ccc(S(=O)(=O)O)c(C)c1` was what?
Marked response: No

Exam item: Could you please tell me the result logged for `CC(=O)NC1(c2cccc(F)c2)CCN(CC[C@@]2(c3ccc(Cl)c(Cl)c3)CN(c3ccccc3)C(=O)CO2)CC1` in this assay?
Marked response: Yes

Exam item: Record request — test call for COCC(C)O (centres undefined)
Marked response: No

Exam item: Kindly provide the recorded test outcome for the following compound: CC(O)C(=O)O (centres undefined)
Marked response: No

Exam item: I would be grateful if you could indicate the recorded call for `C[C@@H]1C[C@H]2[C@@H]3CCC4=CC(=O)C=C[C@]4(C)[C@@]3(F)[C@@H](O)C[C@]2(C)[C@@]1(O)C(=O)COP(=O)(O)O` .
Marked response: No

Exam item: # lookup: test call for `C#C[C@]1(O)CC[C@H]2[C@@H]3CCC4=CC(=O)CC[C@@H]4[C@H]3CC[C@@]21C`
Marked response: No

Exam item: Recorded test outcome, item `COC(=O)CCCCC(=O)OC`
Marked response: No

Exam item: Field: outcome | Entry: `OC1CCCCC1`
Marked response: No

Exam item: # outcome recorded in this test, key = CCc1ccc(CCOc2ccc(CC3SC(=O)NC3=O)cc2)nc1 (centres undefined)
Marked response: No

Exam item: Name the outcome recorded for `CCOC(=O)CC(O)(CC(=O)OCC)C(=O)OCC` in the assay.
Marked response: No

Exam item: What did the test return for `CCC(=C(c1ccc(O)cc1)c1ccc(OCCN(C)C)cc1)c1ccccc1` ?
Marked response: No

Exam item: Give the logged outcome of this assay for the following compound: `CC(C)(C)c1cc(C(C)(C)C)c(O)c(C(C)(C)C)c1`
Marked response: No

Exam item: // outcome(item) with item = `c1ccc2c(c1)ccc1ccccc12`
Marked response: No

Exam item: Can you look up the reported call for CC(O)CO (centres undefined) for me?
Marked response: No

Exam item: Lab log entry: `C=C(C)C(=O)OCCC(F)(F)C(F)(F)C(F)(F)C(F)(F)C(F)(F)C(F)(F)F` — outcome as called in the assay?
Marked response: No

Exam item: State the result this test recorded for `Cc1oc(-c2ccccc2)nc1CCOc1ccc(C[C@H](Nc2ccccc2C(=O)c2ccccc2)C(=O)O)cc1` .
Marked response: No

Exam item: I would be grateful if you could indicate the recorded call for `O=C(O)c1ccccc1C(c1ccc(O)cc1)c1ccc(O)cc1` .
Marked response: No

Exam item: Recorded test call requested for `CC(C)(C)CC(C)(C)c1ccc(O)c(-n2nc3ccccc3n2)c1`
Marked response: No

###

Read-out: Alpha-fetoprotein (AFP) gene, AFP (gene 174)
Assay: LTEA_HepaRG_AFP: Life Technologies and Expression Analysis (LTEA) Assay for Alpha-fetoprotein (AFP) gene using HepaRG (AID 2283472)
Details: mRNA level, 48 h; actives raise or lower the signal
Activity calls are given as the source filed them. Rule for the calls: active = hit-call score of the fitted dose curve at least 0.9, where 1 is the maximum; inactive = score below 0.9.
assay metric: outcome

Before answering, review these 5 worked examples.
> print(dat)
                  compound.structure.string    result
1                    c1ccc2c(c1)ccc1ccccc12  inactive
2  C#C[C@]1(O)CC[C@H]2[C@@H]3CCC4=CC(=O)CC[C@@H]4[C@H]3CC[C@@]21C  inactive
3  Cc1oc(-c2ccccc2)nc1CCOc1ccc(C[C@H](Nc2ccccc2C(=O)c2ccccc2)C(=O)O)cc1  inactive
4         O=c1c(-c2ccc(O)cc2)coc2cc(O)ccc12  inactive
5  CC[C@H](c1ccc(O)cc1)[C@@H](CC)c1ccc(O)cc1  inactive

# input for lookup
Exam item: Sample `O=C(O)c1ccccc1C(c1ccc(O)cc1)c1ccc(O)cc1` — what was its outcome?
Marked response: inactive

###

Read-out: Interleukin 6 (IL6), IL6 (gene 3569)
Test: LTEA_HepaRG_IL6: Life Technologies and Expression Analysis (LTEA) Assay for Interleukin 6 (IL6) using HepaRG (AID 2283509)
Conditions: mRNA level, 48 h; actives raise or lower the signal
Activity calls are given as the source filed them. Rule for the calls: active = hit-call score of the fitted dose curve at least 0.9, where 1 is the maximum; inactive = score below 0.9.
Result category, one only: t (active), f (inactive)

Exam item: Lab log entry: `CC(=O)CC(C)(C)O` — outcome as called in the assay?
Marked response: f

Exam item: I would be grateful if you could indicate the recorded call for `Nc1cccc2c(N)cccc12` .
Marked response: f

Exam item: Hi, do you know how `CCCCCCCCCCCCN1CCCC1=O` came out in this test?
Marked response: f

Exam item: Could you check what this test reported for `CC[C@H](C)[C@@H](C(=O)O)n1sc2ccccc2c1=O` ?
Marked response: f

Exam item: Hi, sorry to bother you, what did the test record for `ClC1=C(Cl)C(Cl)(Cl)C(Cl)=C1Cl` ?
Marked response: f

Exam item: Could you check what this test reported for OC1CCC(C2CCCCC2)CC1 (stereo not drawn) ?
Marked response: f

Exam item: So what was the verdict on `NC(=O)N(O)[C@@H]1C=C[C@H](Oc2cccc(Oc3ccc(F)cc3)c2)C1` in this test?
Marked response: t

Exam item: Give the logged outcome of this assay for the following molecule: `CN1CCN(c2ccccc2/C=C2\SCCN(c3ccc(Cl)c(Cl)c3)C2=O)CC1`
Marked response: t

Exam item: # lookup: test call for COCC(C)OCC(C)O (stereo not drawn)
Marked response: f

Exam item: # fetch the recorded call for `CCCCCCCCCCCCCCCS(=O)(=O)Oc1ccccc1` here
Marked response: f

Exam item: Can you look up the reported call for CCCCC(CC)COC(=O)CCCCC(=O)OCC(CC)CCCC (stereo not drawn) for me?
Marked response: f

Exam item: Entry `CC(C)(C)CC(C)(C)c1ccc(O)c(-n2nc3ccccc3n2)c1` : call = ?
Marked response: f

Exam item: What was the test verdict on `O=C(O)c1ccccc1C(c1ccc(O)cc1)c1ccc(O)cc1` ?
Marked response: f

###

Read-out: Interleukin 6 (IL6), IL6 (gene 3569)
Experiment: LTEA_HepaRG_IL6: Life Technologies and Expression Analysis (LTEA) Assay for Interleukin 6 (IL6) using HepaRG (AID 2283509)
Conditions: mRNA level, 48 h; actives raise or lower the signal
Activity calls are given as the source filed them. How the source made its calls: active means hit-call score of the fitted dose curve at least 0.9, where 1 is the maximum; inactive means score below 0.9.
Hi there, use one of these labels in your reply, thanks! active, inactive

Exam item: Test call for this compound, please: `OCCC(F)(F)C(F)(F)C(F)(F)C(F)(F)C(F)(F)C(F)(F)F`
Marked response: inactive

Exam item: Each compound tested received a call. Report the one for CCCCC(CC)COC(=O)CCCCC(=O)OCc1ccccc1 (stereo not drawn) .
Marked response: inactive

Exam item: Look up the recorded call for `O=[N+]([O-])c1ccc(O)cc1` in this test.
Marked response: inactive

Exam item: Identify the outcome logged in this assay for the compound shown: `Oc1cccc(O)c1`
Marked response: inactive

Exam item: What was the test verdict on `CCCCCCCCC(=O)O` ?
Marked response: inactive

Exam item: GET /call?item= `Oc1cc2ccccc2c2ccccc12` returns the recorded outcome of this test.
Marked response: inactive

Exam item: Would you mind telling me which call this test gave N#C[C@@H]1CC(F)(F)CN1C(=O)CNC1CC2CCC(C1)N2c1ncccn1 (stereo partly drawn) ?
Marked response: inactive

Exam item: Which outcome did this test record for the compound `CC1=C(/C=C/C(C)=C/C=C/C(C)=C/C(=O)O)C(C)(C)CCC1` ?
Marked response: inactive

Exam item: Short answer needed: outcome of this test for `CN1CCC[C@H]1c1cccnc1` ?
Marked response: inactive

Exam item: Per the assay record, what outcome was assigned to `CCCOC(=O)c1ccc(O)cc1` ?
Marked response: inactive

Exam item: Status in this test for `CN(C)C=O` ?
Marked response: inactive

Exam item: Recorded call for `CC#C[C@]1(O)CC[C@H]2[C@@H]3CCC4=CC(=O)CCC4=C3[C@@H](c3ccc(N(C)C)cc3)C[C@@]21C` ?
Marked response: active

Exam item: Short answer needed: outcome of this test for `OC1CCCCC1` ?
Marked response: inactive
